# methodSummary: Approximate measured solubility in solvents at 25° C.
# Assay type: physicochemical
# cond: toluene, 25 °C, organic solvent or mixture, thermodynamic from solid, at least 24 hours
valueKind: solubility (µg/mL)
// note: answer is a bare numeric in µg/mL

# solubility of Cc1cccc2nc(C)n(C3CCC(=O)NC3=O)c(=O)c12 (single isomer, unassigned) [Form A] = 320

====

# methodSummary: Approximate measured solubility in solvents at 25° C.
# Assay type: physicochemical
# cond: n-butanol, 25 °C, organic solvent or mixture, thermodynamic from solid, at least 24 hours
valueKind: solubility (µg/mL)
Field format: number, assumed µg/mL, no unit text.

Item: Cc1cccc2nc(C)n(C3CCC(=O)NC3=O)c(=O)c12 (single isomer, unassigned) [Form A] | solubility: 230

====

# methodSummary: Approximate measured solubility in solvents at 25° C.
# Format: physicochemical
# cond: methyl ethyl ketone, 25 °C, organic solvent or mixture, thermodynamic from solid, at least 24 hours
# Protocol: The solubility of Form A was investigated in a number of solvents at ambient conditions. […] In addition, a known volume of filtrate was evaporated to dryness and the weight of the residue was measured. The solubility of Form B was investigated in a number of solvents at ambient conditions. […] In addition, a known volume of filtrate was evaporated to dryness and the weight of the residue was measured.
valueKind: solubility (µg/mL)
Give the quantity in µg/mL, number only.

The recorded solubility for Cc1cccc2nc(C)n(C3CCC(=O)NC3=O)c(=O)c12 (single isomer, unassigned) [Form A] is 1390

====

# methodSummary: Approximate measured solubility in solvents at 25° C.
# Format: physicochemical
# cond: 2-propanol, 25 °C, organic solvent or mixture, thermodynamic from solid, at least 24 hours
valueKind: solubility
Please state the value followed by its unit.

So, Cc1cccc2nc(C)n(C3CCC(=O)NC3=O)c(=O)c12 (single isomer, unassigned) [Form A] ? Its solubility was 210 µg/mL

====

# methodSummary: Approximate measured solubility in solvents at 25° C.
# Type: physicochemical
# cond: methanol, 25 °C, organic solvent or mixture, thermodynamic from solid, at least 24 hours
# Description: The solubility of Form A was investigated in a number of solvents at ambient conditions. […] In addition, a known volume of filtrate was evaporated to dryness and the weight of the residue was measured. The solubility of Form B was investigated in a number of solvents at ambient conditions. […] In addition, a known volume of filtrate was evaporated to dryness and the weight of the residue was measured.
valueKind: solubility (µg/mL)
Numeric answer only, unit µg/mL assumed.

Looking up Cc1cccc2nc(C)n(C3CCC(=O)NC3=O)c(=O)c12 (single isomer, unassigned) [Form A] , I see its solubility listed as 1280

====

# methodSummary: Approximate measured solubility in solvents at 25° C.
# Type: physicochemical
# cond: acetone, 25 °C, organic solvent or mixture, thermodynamic from solid, at least 24 hours
valueKind: solubility (µg/mL)
Write the answer as a number in µg/mL, unit excluded.

Query Cc1cccc2nc(C)n(C3CCC(=O)NC3=O)c(=O)c12 (single isomer, unassigned) [Form A] yields solubility of 2070

====

# methodSummary: Approximate measured solubility in solvents at 25° C.
# Assay type: physicochemical
# cond: ethanol/water (1/1), 25 °C, aqueous with cosolvent or surfactant or cyclodextrin, thermodynamic from solid, at least 24 hours
valueKind: solubility (µg/mL)
Supply the numeric figure in µg/mL, leaving out any unit text.

For record Cc1cccc2nc(C)n(C3CCC(=O)NC3=O)c(=O)c12 (single isomer, unassigned) [Form A] the listed solubility is 180
